- Tested on: primary human hepatic stellate cells (donor 1)
- ASSAY TEXT: scaled lipid accumulation score (0 = DMSO-like, 1 = nortriptyline-like); higher = stronger HSC inactivation (lipid re-accumulation), active = hit call of the paper
- TEST SETTINGS: library stock concentration: 400 uM; 48 h
Among all 5,800 compounds or so, about 620 (11%) showed activity. The list comes from a sample in which actives are over-represented; it also holds close analogues and randomly drawn compounds.

{"columns": ["COMPOUND", "scaled lipid accumulation score"],
 "data": [
  ["O=C(O)C(Cc1c[nH]c2ccccc12)N1C(=O)c2ccccc2C1=O (centres undefined)", "≤ 0 (inactive)"],
  ["Cc1ccc(NC(=O)c2ccc(CN3CCN(C)CC3)cc2)cc1Nc1nccc(-c2cccnc2)n1", "≤ 0 (inactive)"],
  ["O=S(=O)(c1cccc2c(I)cccc12)N1CCCNCC1", "≤ -0.001 (inactive)"],
  ["O=C(O[C@@H]1Cc2c(O)cc(O)cc2O[C@@H]1c1cc(O)c(O)c(O)c1)c1cc(O)c(O)c(O)c1 [Epigallocatechin gallate]", "≤ 0 (inactive)"],
  ["CC(C)c1nn(-c2c(Cl)cccc2Cl)c2nc(Cc3ccc(OCCO)cc3)[nH]c(=O)c12", "0.071 (inactive)"],
  ["NC1(C(=O)N[C@@H](CCO)c2ccc(Cl)cc2)CCN(c2ncnc3[nH]ccc23)CC1", "0.049 (inactive)"],
  ["CN(C)CCOc1cc(-c2cn[nH]c2)ccc1NC(=O)C1COc2ccccc2O1 (centres undefined)", "≤ -0.005 (inactive)"],
  ["Cc1nc(Nc2ncc(C(=O)Nc3c(C)cccc3Cl)s2)cc(N2CCN(CCO)CC2)n1", "0.238 (inactive)"],
  ["CC(C)c1cc(-c2n[nH]c(=O)n2-c2ccc3c(ccn3C)c2)c(O)cc1O", "0.802 (inactive)"]
]}

---

- Test system: primary human hepatic stellate cells (donor 1)
- ASSAY TEXT: scaled lipid accumulation score (0 = DMSO-like, 1 = nortriptyline-like); higher = stronger HSC inactivation (lipid re-accumulation), active = hit call of the paper
- TEST SETTINGS: library stock concentration: 10 mM; 48 h
Counter-ions that a name gives are not always drawn. Among all 5,800 compounds or so, about 620 (11%) showed activity. The entries come from a sample that favours actives as a whole.
Label condition met when scaled lipid accumulation score is at or above 0.4; otherwise label condition not met.

{"columns": ["MOLECULE", "ANSWER LABEL"],
 "data": [
  ["Cl.Cl.O=C(NCCCN1CCC2(CC1)OCc1ccccc12)[C@H]1CCCN1Cc1ccccc1", "condition met"],
  ["O=S(=O)(c1cccc2cnccc12)N1CCCNCC1 [Fasudil (HA-1077) HCl]", "condition not met"],
  ["O=S(=O)(c1cccc2cnccc12)N1CCCNCC1 [Fasudil hydrochloride]", "condition not met"],
  ["CN1CCN(Cc2ccc(-c3cnc4[nH]cc(-c5ccc6[nH]ccc6c5)c4c3)cc2)CC1", "condition met"],
  ["c1ccc(CN2CCC3(CCCc4ccccc43)CC2)cc1 [L-687,384 hydrochloride]", "condition not met"]
]}

---

- System: primary human hepatic stellate cells (donor 1)
- ASSAY TEXT: scaled lipid accumulation score (0 = DMSO-like, 1 = nortriptyline-like); higher = stronger HSC inactivation (lipid re-accumulation), active = hit call of the paper
- TEST SETTINGS: library stock concentration: 3.33 mM; 48 h
Structures can show the parent of a compound that is named as a salt. The whole screen tested about 5,800 compounds, of which about 620 (11%) showed activity.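 Rule for the calls: active = score above a cut-off or among the top three wells of a plate; in these data no inactive exceeds 0.85.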 What follows is part of a selection rich in actives, with near analogues and random picks from the rest.
Outcomes: 1 for active, 0 for inactive

{"columns": ["COMPOUND", "TARGET DESC", "ANSWER LABEL"],
 "data": [
  ["C[C@@]1(c2cc(-c3cncnc3)c(F)cc2F)CCSC(N)=N1", "primary human hepatic stellate cells (donor 1)", 0],
  ["CCOC(=O)[C@H](CCc1ccccc1)N[C@@H](C)C(=O)N1CCC[C@H]1C(=O)O [Enalapril Maleate]", "primary human hepatic stellate cells (donor 1)", 0],
  ["C=C1C(=O)O[C@H]2[C@H]1CC/C(C)=C/CC[C@@]1(C)O[C@@H]21 [(-)-Parthenolide]", "primary human hepatic stellate cells (donor 1)", 0],
  ["Oc1ccc(Nc2nc(-c3ccc(Cl)cc3)cs2)cc1", "primary human hepatic stellate cells (donor 1)", 0],
  ["CCN(CC)C(=O)c1ccc(Nc2nc(OCC3CCCCC3)c3[nH]cnc3n2)cc1", "primary human hepatic stellate cells (donor 1)", 0],
  ["CCN(CC)Cc1ccc2cc(COC(=O)Nc3ccc(C(=O)NO)cc3)ccc2c1.Cl.O", "primary human hepatic stellate cells (donor 1)", 1],
  ["O=C(O[C@H]1CN2CCC1CC2)N1CCc2ccccc2[C@@H]1c1ccccc1 [Solifenacin succinate]", "primary human hepatic stellate cells (donor 1)", 0],
  ["CO/N=C(\\C(=O)N[C@@H]1C(=O)N2C(C(=O)O)=C(CSC(=O)c3ccco3)CS[C@H]12)c1csc(N)n1 [Ceftiofur HCl]", "primary human hepatic stellate cells (donor 1)", 0],
  ["COC(=O)N[C@H](C(=O)N1CCC[C@H]1c1ncc(-c2ccc(-c3ccc(-c4cnc([C@@H]5CCCN5C(=O)[C@@H](NC(=O)OC)C(C)C)[nH]4)cc3)cc2)[nH]1)C(C)C", "primary human hepatic stellate cells (donor 1)", 0],
  ["C[C@H](CS)C(=O)N1CCC[C@H]1C(=O)O", "primary human hepatic stellate cells (donor 1)", 0],
  ["CN1CCc2nc(C(=O)N[C@@H]3C[C@@H](C(=O)N(C)C)CC[C@@H]3NC(=O)C(=O)Nc3ccc(Cl)cn3)sc2C1", "primary human hepatic stellate cells (donor 1)", 0],
  ["CN1CCN(C2=Nc3cc(Cl)ccc3Nc3ccccc32)CC1", "primary human hepatic stellate cells (donor 1)", 0],
  ["CN(C)CCOc1ccc(-c2nc(-c3ccncc3)c(-c3ccc4c(c3)CCC4=NO)[nH]2)cc1", "primary human hepatic stellate cells (donor 1)", 1],
  ["Cc1nc(Nc2n[nH]c3c2CN(C(=O)N[C@H](CN(C)C)c2ccccc2)C3(C)C)c2sccc2n1", "primary human hepatic stellate cells (donor 1)", 0],
  ["Cc1n[nH]c2ccc(-c3cncc(OC[C@@H](N)Cc4ccccc4)c3)cc12", "primary human hepatic stellate cells (donor 1)", 1],
  ["CCCCN(Cc1ccc(C(=O)NO)cc1)C(=O)Nc1ccccc1", "primary human hepatic stellate cells (donor 1)", 0],
  ["CC(C)CC(=O)Nc1n[nH]c2c1CN(C(=O)C1CCN(C)CC1)C2(C)C", "primary human hepatic stellate cells (donor 1)", 0],
  ["NC(=O)Nc1cc(-c2cccc(F)c2)sc1C(=O)N[C@H]1CCCNC1", "primary human hepatic stellate cells (donor 1)", 1]
]}

---

- Test system: primary human hepatic stellate cells (donor 1)
- ASSAY TEXT: scaled lipid accumulation score (0 = DMSO-like, 1 = nortriptyline-like); higher = stronger HSC inactivation (lipid re-accumulation), active = hit call of the paper
- TEST SETTINGS: library stock concentration: 3.33 mM; 48 h
Among all 5,800 compounds or so, about 620 (11%) showed activity. This excerpt belongs to a sample that is enriched for actives.
MEASURE: scaled lipid accumulation score

{"columns": ["COMPOUND", "TEST VALUE"],
 "data": [
  ["CCCCc1c(-c2ccc(OC)cc2)[nH]c2nccnc12", "0.036 (inactive)"],
  ["CN(CC(=O)N(Cc1ccc(C2CCCCC2)cc1)c1ccc(C(=O)O)cc1)S(=O)(=O)c1c(F)c(F)c(F)c(F)c1F", "≤ -0.009 (inactive)"],
  ["NC(=O)c1ccc(N(C(N)=O)c2c(F)cccc2F)nc1-c1ccc(F)cc1F", "≤ 0 (inactive)"],
  ["OCc1c[nH]c2ccccc12", "≤ 0 (inactive)"],
  ["CS(=O)(=O)Nc1ccc([N+](=O)[O-])cc1Oc1ccccc1 [Nimesulide]", "≤ 0 (inactive)"],
  ["O=C1CCc2cc(OCCCCc3nnnn3C3CCCCC3)ccc2N1", "≤ 0 (inactive)"],
  ["Nc1nc(F)nc2c1ncn2[C@@H]1O[C@H](COP(=O)(O)O)[C@@H](O)[C@@H]1O [Fludarabine Phosphate]", "0.514 (inactive)"],
  ["CC(=O)c1ccc(N2CCOCC2)cc1O", "≤ 0 (inactive)"],
  ["O=C1CCc2ccc(OCCCCN3CCN(c4cccc(Cl)c4Cl)CC3)cc2N1", "≤ 0 (inactive)"]
]}
